target: Angiotensin II receptor (AT-1) type-1 (Rattus norvegicus) (UniProt P29089+P25095); test: Antihypertensive activity in renal hypertensive rats (RHR) at 30 mg/Kg dose after oral administration; format: functional, organism-based
assay_endpoint: Maximum blood pressure change (%)

query_smiles: CCCCc1ncc(/C=C2/C(=O)N(CCCC)C(=O)N2Cc2csc(C)c2)n1Cc1ccc(C(=O)O)cc1
assay_endpoint: Maximum blood pressure change
meas_value: -23
--
query_smiles: CCCCc1ncc(/C=C2/C(=O)N(CCCC)C(=O)N2Cc2cc(C)cs2)n1Cc1ccc(C(=O)O)cc1
assay_endpoint: Maximum blood pressure change
meas_value: -16
--
query_smiles: CCCCCCN1C(=O)/C(=C/c2cnc(CCCC)n2Cc2ccc(C(=O)OC)cc2)N(Cc2csc(C)n2)C1=O
assay_endpoint: Maximum blood pressure change
meas_value: -34
--
query_smiles: CCCCc1ncc(/C=C2/C(=O)N(CCCC)C(=O)N2CCCC)n1Cc1ccc(C(=O)OC)cc1
assay_endpoint: Maximum blood pressure change
meas_value: -27
--
query_smiles: CCCCc1ncc(/C=C2/C(=O)NC(=O)N2Cc2ccc(Cl)cc2)n1Cc1ccc(C(=O)O)cc1
assay_endpoint: Maximum blood pressure change
meas_value: -17
--
query_smiles: CCCCc1ncc(/C=C2/C(=O)N(CCCC)C(=O)N2Cc2csc(C)n2)n1Cc1ccc(C(=O)O)cc1
assay_endpoint: Maximum blood pressure change
meas_value: -34
--
query_smiles: CCCCc1ncc(/C=C2/C(=O)NC(=O)N2CCCC)n1Cc1ccc(-c2nn[nH]n2)cc1
assay_endpoint: Maximum blood pressure change
meas_value: 0
--
query_smiles: CCCCc1ncc(/C=C2/C(=O)N(CCCC)C(=O)N2Cc2ccsc2)n1Cc1ccc(C(=O)OC)cc1
assay_endpoint: Maximum blood pressure change
meas_value: -36
--
query_smiles: CCCCc1ncc(/C=C2/C(=O)NC(=O)N2Cc2cccs2)n1Cc1ccc(C(=O)O)cc1
assay_endpoint: Maximum blood pressure change
meas_value: -21
--
query_smiles: CCCCc1ncc(/C=C2/C(=O)NC(=O)N2CCCC)n1Cc1ccc(C(=O)OC)cc1
assay_endpoint: Maximum blood pressure change
meas_value: -11
--
query_smiles: CCCCc1ncc(/C=C2/C(=O)N(CCCC)C(=O)N2Cc2ccccn2)n1Cc1ccc(C(=O)OC)cc1
assay_endpoint: Maximum blood pressure change
meas_value: -20
--
query_smiles: CCCCc1ncc(/C=C2/C(=O)N(CCCC)C(=O)N2Cc2ccoc2)n1Cc1ccc(C(=O)OC)cc1
assay_endpoint: Maximum blood pressure change
meas_value: -22
--
query_smiles: CCCCc1ncc(/C=C2/C(=O)N(CCCC)C(=O)N2Cc2csc(C)n2)n1Cc1ccc(C(=O)OC)cc1
assay_endpoint: Maximum blood pressure change
meas_value: -40
--
query_smiles: CCCCc1ncc(/C=C2/C(=O)NC(=O)N2CCCC)n1Cc1ccc(NS(=O)(=O)C(F)(F)F)cc1
assay_endpoint: Maximum blood pressure change
meas_value: -11
--
query_smiles: CCCCc1ncc(/C=C2/C(=O)N(CCCC)C(=O)N2Cc2ccc(Cl)cc2)n1Cc1ccc(C(=O)OC)cc1
assay_endpoint: Maximum blood pressure change
meas_value: -15
--
query_smiles: CCCCc1ncc(/C=C2/C(=O)NC(=O)N2CCCC)n1Cc1ccc(-c2ccccc2-c2nn[nH]n2)cc1
assay_endpoint: Maximum blood pressure change
meas_value: 0
--
query_smiles: CCCCc1ncc(/C=C2/C(=O)N(CCCC)C(=O)N2CCCC)n1Cc1ccc(C(=O)O)cc1
assay_endpoint: Maximum blood pressure change
meas_value: -45
--
query_smiles: CCCCc1ncc(/C=C2/C(=O)N(CCCC)C(=O)N2Cc2cccs2)n1Cc1ccc(C(=O)O)cc1
assay_endpoint: Maximum blood pressure change
meas_value: -28
--
query_smiles: CCCCc1ncc(/C=C2/C(=O)N(CCCC)C(=O)N2Cc2ccc(C)s2)n1Cc1ccc(C(=O)O)cc1
assay_endpoint: Maximum blood pressure change
meas_value: -22
--
query_smiles: CCCCc1ncc(/C=C2/C(=O)N(CCCC)C(=O)N2Cc2csc(N)n2)n1Cc1ccc(C(=O)OC)cc1
assay_endpoint: Maximum blood pressure change
meas_value: -37

Every entry's value here was drawn from ChEMBL document CHEMBL1128555.
